molecular target: firefly luciferase (Photinus pyralis); experiment: Quaternary ammonium/phosphonium detergent screen, firefly luciferase (Example 5); type: biochemical; conditions: final conc. 0.03% detergent; Tergitol NP-9 present; read-out: Retained Firefly Luciferase Luminescence (%)
Sequence (P08659 whole entry): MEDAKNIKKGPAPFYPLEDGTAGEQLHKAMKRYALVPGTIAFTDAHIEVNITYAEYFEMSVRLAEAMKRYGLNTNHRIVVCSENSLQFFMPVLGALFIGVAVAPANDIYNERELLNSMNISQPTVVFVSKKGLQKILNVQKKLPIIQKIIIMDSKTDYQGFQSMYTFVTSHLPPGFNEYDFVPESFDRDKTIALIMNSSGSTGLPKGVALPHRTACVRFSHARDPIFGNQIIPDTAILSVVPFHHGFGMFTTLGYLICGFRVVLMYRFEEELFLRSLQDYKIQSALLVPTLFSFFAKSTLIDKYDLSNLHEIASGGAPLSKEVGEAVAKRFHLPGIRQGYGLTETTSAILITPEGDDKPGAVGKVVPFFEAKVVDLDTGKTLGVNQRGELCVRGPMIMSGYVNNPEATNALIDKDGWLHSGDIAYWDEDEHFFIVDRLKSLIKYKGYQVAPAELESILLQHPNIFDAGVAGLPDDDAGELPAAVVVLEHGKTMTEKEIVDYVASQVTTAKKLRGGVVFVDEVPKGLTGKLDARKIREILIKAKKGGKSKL
Below, each entry is listed alongside its reported remaining activity at 0.03 %.
QUANTITY: remaining activity at 0.03 % (%)

MOLECULE	READOUT_UNITS	RECORDED_MEASUREMENT
C=CCCC[P+](c1ccccc1)(c1ccccc1)c1ccccc1.[Br-]	%	98
C[N+](C)(C)Cc1ccccc1.[Br-] [Benzyltrimethylammonium bromide]	%	99
CC[N+](C)(C)c1cccc(O)c1 [Edrophonium chloride]	%	98
C[N+](C)(Cc1ccccc1)c1ccccc1.[Cl-] [Benzyldimethylphenylammonium chloride]	%	82
CC=CC[P+](Cc1ccccc1)(c1ccccc1)c1ccccc1.[Br-]	%	106

* * *

Below, each entry is listed alongside its reported Retained Renilla Luciferase Luminescence (%).
biological target: Renilla luciferase (Renilla reniformis, UniProt P27652); experiment: Quaternary ammonium/phosphonium detergent screen, Renilla luciferase (Example 5); assay type: biochemical; details: final conc. 0.10% detergent; Tergitol NP-9 present
QUANTITY: Retained Renilla Luciferase Luminescence (%)

COMPOUND	TESTED_TARGET	RECORDED_MEASUREMENT
CC[N+](CC)(CCC(=O)Nc1c(C)cccc1C)Cc1ccccc1.O=C([O-])c1ccccc1	Renilla luciferase (Renilla reniformis, UniProt P27652)	46%
C[N+](C)(Cc1ccccc1)c1ccccc1.[Cl-] [Benzyldimethylphenylammonium chloride]	Renilla luciferase (Renilla reniformis, UniProt P27652)	12%
CC1(C)C=Cc2ccccc2[N+]1(C)C.[I-]	Renilla luciferase (Renilla reniformis, UniProt P27652)	89%
C[N+]1(C)CCCc2cccc(O)c21.[I-]	Renilla luciferase (Renilla reniformis, UniProt P27652)	82%

* * *

Biological target: Renilla luciferase (Renilla reniformis, UniProt P27652)
Sequence (P27652 1-311): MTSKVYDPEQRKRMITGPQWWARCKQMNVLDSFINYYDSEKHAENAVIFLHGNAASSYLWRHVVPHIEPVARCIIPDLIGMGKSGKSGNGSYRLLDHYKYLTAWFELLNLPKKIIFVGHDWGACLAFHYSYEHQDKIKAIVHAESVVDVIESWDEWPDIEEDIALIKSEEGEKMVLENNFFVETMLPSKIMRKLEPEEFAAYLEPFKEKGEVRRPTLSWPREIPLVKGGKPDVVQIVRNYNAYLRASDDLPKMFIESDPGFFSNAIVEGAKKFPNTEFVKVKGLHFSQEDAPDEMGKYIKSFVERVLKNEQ
Assay: Non-detergent compound screen, Renilla luciferase (Example 6)
Type: biochemical
Settings: inhibitor 1000 μM
Would you please tag the item true (1) when its Selectivity Value is 20 or above, and false (0) when it is below?

SMILES_STRUCTURE	ASSIGNED_CATEGORY
COc1ccc(CNC(=O)/C=C/c2ccc3ncccc3c2)cc1	false (0)
COc1ccc(CNC(=O)/C=C/c2ccc3c(ccc[n+]3C)c2)cc1.[I-]	false (0)
COc1ccc(CNC(=O)/C=C/c2ccc3[nH]cc(CCN(C)C)c3c2)c(OC)c1	true (1)
COc1cc(CNC(=O)/C=C/c2ccc3[nH]cc(CCN(C)C)c3c2)cc(OC)c1OC	false (0)
COc1ccc(CNC(=O)/C(C#N)=C/CCCCCCCBr)cc1	false (0)
COc1ccc(CCNC(=O)/C=C/c2ccc3[nH]cc(CCN(C)C)c3c2)cc1	false (0)
